Tested on: gene editing with Cas9
Test: Screen of 322 new SSAP proteins, gene editing activity with Cas9 (Table 5)
Format: cell-based
Conditions: normalized
Here, each record is paired with measured Cas9 with SSAP activity (normalized) data.
Please give only the number in your answer, with no unit.

# molecule, Cas9 with SSAP activity (normalized)
measured = [
    ("SSAP_108: SEQ ID NO: 277; Rummeliibacillus stabekisii (protein, listed as Rummeliibacillus stabekisii) ATTTELKEQMKQQAPAQTKKPKTIEDYMKQMAPAMAEALPKHMSVDRLTRLAMTTIRTTPALRQADVSSLLGAVMQAAQLGLEPGLLGQCYLLPFKNKKKAITEVQFIIGYKGMIDLARRSGHIQSIYSHAVFENDVFEYELGLEPKLKHTPTMSTDKGAFIGAYAVAHFKDGGHQFEFMSKADIEKRKGRSKAANSDYSPWLTDYEEMAKKTVIRHMWKYLPISVEMQEQVAYDEGVGRSIKDVTPEEDVFVQAPDEILEAEATEA", 0.068),
    ("SSAP_17: SEQ ID NO: 186 (protein) ATNDELKNQLANKQNGGQVASAQSLDLKGLLEAPTMRKKFEKVLDKKAPQFLTSLLNLYNGDDYLQKTDPMTVVTSAMVAATLDLPIDKNLGYAWIVPYKGRAQFQLGYKGYIQLALRTGQYKSINVIEVRDGELLKWNRLTEEIELDLDNNTSEKVIGYCGYFQLINGFEKTVYWTRKEIEAHKKKFSKSDFGWKKDYDAMAKKTVLRNMLSKWGILSIDMQTAVTEDEAEPRERKDVTEDESIPDIIDAPITPSDTLEAGSEVQGSMI", "−0.195"),
    ("SSAP_315: SEQ ID NO: 484; Pseudoalteromonas spongiae (protein, listed as Pseudoalteromonas spongiae) NKFQHLQTELSSQLLSTKERFNELNNKNNLKVNFEEEYNFFYHLVTSSFYNINGIATCTFSSLKEAFLNIAKYGLSINPKLNLCYIRTEQSCAQANVNIAVYDFGYKGLLKLITRTGKVKIVTADVFYENDNFEFRGTREPVKHSTKTLSAAARGAMAGGYCSSELVAGGVVTTIMTPEELREIESICQSTGNEAWNSVFIDELRRKTLIKRHWKTLMQVIEEQNLSVPIEETYQCDFANGGY", "−0.629"),
]

Consider the record given below.
What does the record list as Cas9 with SSAP activity (normalized) for SSAP_306: SEQ ID NO: 475; Paenibacillus gorillae (protein, listed as Paenibacillus gorillae) LEAKHDALPSGFNAVRFVQNCKAYLPEVRNFERFNPDEIALQFLKGAILGLDFLAKECHVITEGSAARFQTDYKGEMKLAMKHSVRPLLNIYAKNVREGDVFRESVVEGRPVVSFDPLPFNNSKIIGSFAVAQFNDGGMDYESMSSTEIESIRTHYGKNPGSDTWEKSQGEMYKRTALRRLCKTIEIDFDAEQRLAFDAGSSFEFNREPRPQQQSPLNLESEVLTDEVEQG ?
−2.350
